target: Peptidyl-prolyl cis-trans isomerase FKBP1A (Homo sapiens); test: small-molecule binding to FKBP12 – biophysical, NMR detection (AID 608); conditions: purified FKBP12
Active and inactive are the calls of the source. No rule for the calls is given here.
Parameter call: string, one of 1 for active, 0 for inactive

Here's what some known entries look like.
- O=C1NC(=O)C(Cc2cccs2)C(=O)N1: 0
- OCc1csc(-c2ccccc2)n1: 0
- O=C1C[C@@H](c2ccc(O)cc2)Oc2cc(O)cc(O)c21: 0
- O=C(O)CCC(=O)c1cccc2ccccc12: 0
- Nc1ccc2nsnc2c1: 0

Query: How was COC(=O)CSc1nc(N)cc(=O)[nH]1 classified in this test?
Reply: 0

Query: How was COc1cc(OC)c(-c2nc3cnccc3n2C)cc1OC classified in this test?
Reply: 0

Query: How was Cc1nc2ccccc2n1S(=O)(=O)N1CCCCC1 classified in this test?
Reply: 0

* * *

The entries below are paired with their reported Kd.
biological target: Peptidyl-prolyl cis-trans isomerase FKBP1A (Homo sapiens) (UniProt P62942); experiment: small-molecule binding to FKBP12 – biophysical, NMR detection (AID 608); details: purified FKBP12
Sequence (P62942 whole entry, looked up): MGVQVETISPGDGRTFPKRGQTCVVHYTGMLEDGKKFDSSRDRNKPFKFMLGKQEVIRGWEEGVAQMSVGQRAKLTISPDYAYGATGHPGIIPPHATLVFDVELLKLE
Activity calls are given as the source filed them. How the calls were made is not given here.

* CC1(C)C=Cc2c(cc3occ(-c4ccc5c(c4)OCO5)c(=O)c3c2O)O1 | > 4 mM (inactive)
* Cc1nc2ccccc2c(=O)n1CCCO | > 4 mM (inactive)

Kindly review the next compound as well.
Query: Could you tell me which Kd is on file for CC(C)(OC(=O)c1ccccc1)[C@@H]1Cc2cc3ccc(=O)oc3cc2O1 ?
Reply: > 4 mM (inactive)

* * *

target: UniProtKB P62942; test: small-molecule binding to FKBP12 – biophysical, NMR detection (AID 608); settings: purified FKBP12
Active and inactive are the calls of the source. How the calls were made is not given here.
Parameter call: string, one of yes (active), no (inactive)

Here's what some known entries look like.
* C=Cc1c(C)c2cc3[nH]c(cc4nc(cc5nc(cc1[nH]2)C(C)=C5CCC(=O)O)C(CCC(=O)O)=C4C)c(C)c3C=C | no
* COC(=O)C1COCCN1C(=O)CSc1ccc(C(C)C)cc1 (configuration not stated) | yes
* CC1(C)Cc2nc3n[nH]c(N)c3cc2CO1 | no
* CN=C(C)c1c(O)n(C)c(=S)n(C)c1=O | no
* Cc1cc(C)n(S(=O)(=O)c2ccc(C)c(C)c2C)n1 | no
* C/C=C(\C)C(=O)O[C@H]1C[C@@H](OC(C)=O)[C@@]2(C(=O)OC)CO[C@@H]3C2[C@]12CO[C@](O)(C(=O)OC)[C@H]2[C@](C)(C12O[C@@]1(C)[C@H]1C[C@@H]2OC2OC=C[C@@]21O)[C@@H]3O (some centres not stated) | no

Query: How was Cc1occc1C(=O)Nc1nnc(C(F)(F)F)s1 classified in this test?
Reply: no

Query: How was CCCCCCCCCCCC1=C(O)C(=O)C=C(O)C1=O classified in this test?
Reply: no

Query: How was Cc1ccc(Nc2nnns2)cc1C classified in this test?
Reply: no

Query: How was NCCN=C1NS(=O)(=O)c2ccccc21 classified in this test?
Reply: no

* * *

target: Peptidyl-prolyl cis-trans isomerase FKBP1A (Homo sapiens) (UniProt P62942); assay: small-molecule binding to FKBP12 – biophysical, NMR detection (AID 608); conditions: purified FKBP12
Active and inactive are the calls of the source. No rule for the calls is given here.
Parameter call: string, one of active, inactive

Here's what some known entries look like.
• O=C(O)c1ccc(N2CCCCC2)cc1 = inactive
• CNC(=S)Nc1ncn(Cc2cccc(F)c2)n1 = inactive
• O=C1CCCN1c1ccc(S(=O)O)cc1 = inactive

Query: How was CC(C)c1ccc(SCC(=O)N2CCOCC2C(=O)OCCCc2cccnc2)cc1 (stereo not given) classified in this test?
Reply: active
